tested on: U251 CNS
Give your call using only these classes: active, inactive

Inquiry: Recorded test outcome, item CCN(CC)CC(O)COc1c(Br)c(Br)c(Br)c2c1OC(C)(C)C2 (centres undefined)
Reply text: inactive

Inquiry: Could you please tell me the result logged for O=C(O)c1ccc(C(=O)O)c(C(=O)O)c1.[NH-]C1CCCCC1[NH-].[Pt+2] in this assay?
Reply text: inactive

Inquiry: Per the assay record, what outcome was assigned to CC(C)OCc1cc(CN2CCN(c3cccc(Cl)c3)CC2)c(O)c2ncccc12 ?
Reply text: active

Inquiry: Recorded call for CC(=O)OCC1OC([Se-])C(OC(C)=O)C(OC(C)=O)C1OC(C)=O.N#CCC[PH+](CCC#N)CCC#N.[Au+] (centres undefined) ?
Reply text: inactive
